test system: HAP1 MTAP-deleted cell line; test: SDMA in-cell western assay, HAP1 MTAP-deleted; settings: Homo sapiens, HAP1, read-out: Hap1 MTAP deleted IC90, SDMA in-cell western assay, HAP1 MTAP-deleted cell line
Measured Property: IC90

Enquiry: Recall the reported IC90 of Cc1ccc2ccc([C@H]3CC[C@H](C)CN3C(=O)C(=O)Nc3cnc(N)c4cn[nH]c34)cc2n1 (racemic) on HAP1 MTAP-deleted cell line and write it down.
Return: < 75 nM

Enquiry: State IC90 (HAP1 MTAP-deleted cell line) of C[C@H]1CC[C@H](c2cccc(F)c2)N(C(=O)C(=O)Nc2cnc(N)c3cn[nH]c23)C1 (racemic) .
Return: < 75 nM

Enquiry: Determine reported IC90 for C[C@H]1CC[C@H](c2ccc3sc(C4CCC(N(C)C)CC4)nc3c2)N(C(=O)C(=O)Nc2cnc(N)c3cn[nH]c23)C1 (mixture of isomers) ; test system: HAP1 MTAP-deleted cell line.
Return: < 75 nM

Enquiry: Find the measured IC90 of C[C@H]1CC[C@H](c2ccccc2)N(C(=O)C(=O)Nc2cnc(N)c3c2OCC3)C1 with HAP1 MTAP-deleted cell line as test system.
Return: > 125 nM

Enquiry: Quote HAP1 MTAP-deleted cell line IC90 for entry C[C@@H]1CC[C@H](c2ccnn2C)N(C(=O)C(=O)Nc2cnc(N)c3cn[nH]c23)C1 (stereo in doubt) .
Return: > 125 nM

Enquiry: Report the value of IC90 obtained on HAP1 MTAP-deleted cell line for CC1OCc2c(NC(=O)C(=O)N3C[C@@H](C)CC[C@@H]3c3ccccc3)cnc(N)c21 (single isomer, unassigned) .
Return: > 125 nM

Enquiry: Specify the recorded IC90 for C[C@H]1CC[C@H](c2ccc3cc(Cl)cnc3c2)N(C(=O)C(=O)Nc2cnc(N)c3cn[nH]c23)C1 (racemic) , system: HAP1 MTAP-deleted cell line.
Return: < 75 nM

###

tested on: HAP1 MTAP-intact cell line; assay: SDMA in-cell western assay, HAP1 MTAP-intact; settings: Homo sapiens, HAP1, read-out: Hap1 MTAP intact IC50, SDMA in-cell western, HAP1 MTAP-intact cell line
pIC50: −log10 of the molar value.
For each entry below, report its pIC50 value.

Enquiry: Answer with reported pIC50 of C[C@@H]1CC[C@@H](c2ccc3cnccc3c2)N(C(=O)C(=O)Nc2cnc(N)c3cn[nH]c23)C1 (racemic) [Compound 22]
Return: 7.30 to 8.30

Enquiry: State, in one line, measured pIC50 of C[C@H]1CC[C@H](c2ccc3sc(CCN4CCCC4)nc3c2)N(C(=O)C(=O)Nc2cncc3[nH]ncc23)C1 [Compound 102]
Return: < 7.30

Enquiry: Look up and report measured pIC50 for this entry: C[C@H]1CC[C@H](c2ccc3sc(C4CCN(C)CC4)nc3c2)N(C(=O)C(=O)Nc2cnc3c(c2)C(=O)NC3)C1 [Compound 87]
Return: < 7.30

Enquiry: Specify measured pIC50 for C[C@@H]1CC[C@@H](c2ccc3cn(C)nc3c2)N(C(=O)C(=O)Nc2cncc3cn[nH]c23)C1 (relative stereo) [Compound 13] .
Return: < 7.30

Enquiry: Answer with reported pIC50 of COc1cc([C@H]2CC[C@H](C)CN2C(=O)C(=O)Nc2cnc(N)c3cn[nH]c23)ccn1 [Compound 145]
Return: 7.30 to 8.30

Enquiry: For the compound C[C@H]1CC[C@H](c2ccc3sc(C4CC5(C4)CN(C)C5)nc3c2)N(C(=O)C(=O)Nc2cncc3cn[nH]c23)C1 [Compound 93] , give its reported pIC50.
Return: 7.30 to 8.30

Enquiry: Hello, please tell me recorded pIC50 for this one: C[C@H]1CC[C@H](c2ccc3ncccc3c2)N(C(=O)C(=O)Nc2cnc(N)c3cn[nH]c23)C1 [Compound 83]
Return: 7.30 to 8.30

Enquiry: Input CCN1CCC(c2nc3cc([C@H]4CC[C@H](C)CN4C(=O)C(=O)Nc4cncc5cn[nH]c45)ccc3s2)CC1 [Compound 37] , output reported pIC50.
Return: 7.30 to 8.30

Enquiry: Please give the documented pIC50 of C[C@H]1CC[C@H](c2ccc3sc(C45CCC(CC4)N(C)C5)nc3c2)N(C(=O)C(=O)Nc2cncc3cn[nH]c23)C1 [Compound 54]
Return: 7.30 to 8.30

Enquiry: Let me know recorded pIC50 for C[C@H]1CC[C@H](c2ccc3sc([C@H]4C[C@H](N(C)C)C4)nc3c2)N(C(=O)C(=O)Nc2cncc3cn[nH]c23)C1 [Compound 64] , thanks.
Return: 7.30 to 8.30

Enquiry: Give pIC50 for C[C@H]1CC[C@H](c2ccc3ccccc3c2)N(C(=O)C(=O)Nc2cnc(N)c3cn[nH]c23)C1 [Compound 79]
Return: 7.30 to 8.30
